Sourced from PubChem BioAssay (NCI)

Assign TGI to each entry below.
- Test system: SR leukemia
- measurement_description: NCI tumour cell line growth inhibition, 48 h

Recorded TGI, per entry:
Query: # TGI lookup, item `CCOC(=O)c1cn(-c2ccc(Cl)cc2)c(=O)n2c1nc1ccccc12`
Response: > 100 µM

Query: # TGI lookup, item `COc1ccc2c(c1)sc1nc(-c3ccccc3)c(-c3ccsc3)n12`
Response: > 100 µM

Query: # TGI lookup, item CC1(C)[C@@H]2C[C@H]1c1cnc(-c3ccccn3)cc1C2[C@@H]1c2cc(-c3ccccn3)ncc2[C@@H]2C[C@H]1C2(C)C (stereo not given in full)
Response: > 100 µM

Query: # TGI lookup, item C=CCCCCCCCCCCCC1CCC(CC)N1 (stereo not given)
Response: 7.12 µM

***
Query: # TGI lookup, item C=CCNC(=S)N1CC(C)C(=O)Nc2ccccc21 (stereo not given)
Response: > 100 µM

====

- Tested on: KM12 colon
- measurement_description: NCI tumour cell line growth inhibition, 48 h
measured_attribute: TGI

Query: # TGI lookup, item O=C1C(Br)=C[C@H]2C3C=CC(Br)(C3=O)[C@@H]12 (stereo not given in full)
Response: 24.4 µM

For the 2 compounds below, give their TGI values.
1. CCN(CC)CCC1CC/C(=C\c2ccc(OC)cc2)C1=O (stereo not given)
2. COc1cc(-c2cc(=O)c3cc4c(cc3[nH]2)OCO4)cc(OC)c1OC

Response:
1: > 100 µM; 2: > 100 µM

For the 2 compounds below, give their TGI values.
1. CCOC(=O)c1c(N2CCOCC2)[nH]c(=O)c(C(c2ccc(OC)cc2)c2c(O)c(C(=O)OCC)c(N3CCOCC3)[nH]c2=O)c1O
2. COc1ccc2c(c1)sc1nc(-c3ccccc3)c(-c3ccsc3)n12

Response:
> 100 µM
> 100 µM

====

- Test system: SNB-19 CNS
- measurement_description: NCI tumour cell line growth inhibition, 48 h
Assign TGI to each entry below.

Query: Quick check: TGI on SNB-19 CNS, item `Cc1cc2c(CC(=O)O)[nH]nc2c(C(=O)O)c1C` ?
Response: > 100 µM

Query: Quick check: TGI on SNB-19 CNS, item `CC1(C)C(=O)N(c2ccccc2)C(=O)N1c1nc2ccccc2[nH]1` ?
Response: > 100 µM

Query: Quick check: TGI on SNB-19 CNS, item O=C1[C@@H]2Cc3c([nH]c4ccccc34)C(C3CCCCC3)N2C(=O)[C@@H]2CCCN12 (stereo not given in full) ?
Response: > 100 µM

Query: Quick check: TGI on SNB-19 CNS, item COC1=CC23C=CC1[C@@H](c1ccccc1)C2=C(C)C(=O)N3C(=O)NC1CCCCC1 (stereo not given in full) ?
Response: > 100 µM

Query: Quick check: TGI on SNB-19 CNS, item `COc1ccc(OC)c2cc(Cc3ccc(N(C)C)cc3)c(=O)c(Cc3ccc(N(C)C)cc3)cc12` ?
Response: > 100 µM

Query: Quick check: TGI on SNB-19 CNS, item `Cc1nc2ccc(C(F)(F)F)cc2nc1Nc1ccc(Cl)c(Cl)c1` ?
Response: 27.1 µM

Query: Quick check: TGI on SNB-19 CNS, item `Cc1ccc(C(=O)c2oc3ccc4c(C)cc(=O)oc4c3c2C)cc1` ?
Response: > 100 µM

Query: Quick check: TGI on SNB-19 CNS, item CC1(C)C2CC(c3ccncc3)ON2C(C)(C)N1O (stereo not given) ?
Response: > 100 µM

For the 2 compounds below, give their TGI values.
1. CSc1nncc(-c2cc3c(c(SC)n2)CCC3)n1
2. CC(=O)Oc1cc(C)ccc1[C@]1(C)CC[C@H](C)/C1=C\Br

Response:
1. > 100 µM
2. 17.4 µM

====

- Tested on: OVCAR-4 ovarian
- measurement_description: NCI tumour cell line growth inhibition, 48 h; in the data active = GI50 below about 0.43 µM; inactive = the rest
Return exactly one item of active, inactive

Query: What classification did `C=CCn1c(C)nc2cc(Nc3nc(Nc4ccc5nc(C)n(CC=C)c5c4)c4ccccc4n3)ccc21` end up with in this test?
Response: active

Query: What classification did `CC(C)c1ccc(Cc2cnc(NC(=O)c3cc(Br)cs3)s2)cc1` end up with in this test?
Response: inactive

Query: What classification did `CCOC(=O)[C@@H](C)C[C@H](Cc1ccccc1)NC(=O)c1csc([C@@H](C[C@H](C(C)C)N(C)C(=O)[C@@H](NC(=O)[C@H]2C[C@H](O[Si](C)(C)C(C)(C)C)CCN2C)C(C)C)OC(C)=O)n1` end up with in this test?
Response: inactive

Query: What classification did `Cc1cc(/C=C2\SC(=Nc3ccccc3)N(C3CCCC3)C2=O)c(C)n1-c1ccc(Cl)cc1` end up with in this test?
Response: inactive

Query: What classification did `CC[N+](CCCCCCCCCC[N+](CC)(c1ccccn1)c1ccccn1)(c1ccccn1)c1ccccn1` end up with in this test?
Response: inactive

***
Query: What classification did `CC(=O)Oc1cc(C)ccc1[C@]1(C)CC[C@H](C)/C1=C\Br` end up with in this test?
Response: inactive

Query: What classification did `COc1cc(/C=C/c2cc(C(F)(F)F)[nH]c(=O)n2)ccc1OCc1ccccc1F` end up with in this test?
Response: inactive

Query: What classification did `O=[N+]([O-])c1ccc2[nH]cc(-c3c4ccsc4cc4[nH]c5ccc([N+](=O)[O-])cc5c34)c2c1` end up with in this test?
Response: inactive

Query: What classification did `C[CH2][Sn]1([CH2]C)[O]C(=O)[O][Sn]([CH2]C)([CH2]C)[O]1` end up with in this test?
Response: inactive

Query: What classification did `O=C(Nc1ccccc1C(F)(F)F)c1cccc(NC2=C(Cl)C(=O)N(Cc3ccccc3)C2=O)c1` end up with in this test?
Response: inactive

Query: What classification did `Oc1ccc(Br)cc1Sc1cc(Br)ccc1O` end up with in this test?
Response: inactive

Query: What classification did `COc1cc2c(cc1C)NC(=O)/C2=C\c1cc(OC)c(OC)c(OC)c1` end up with in this test?
Response: inactive

====

- Test system: HS 578T breast
- measurement_description: NCI tumour cell line growth inhibition, 48 h; in the data active = GI50 below about 0.43 µM; inactive = the rest
Return exactly one item of 1 for active, -1 for inactive

Query: What classification did `O=C(Nc1ccc(Cl)cc1)Nc1ccc(Cl)c(Cl)c1` end up with in this test?
Response: -1

Query: What classification did `CC1(C)C=CC[C@]2(C)[C@H]3CC[C@@H]4[C@H]5[C@H](C(=O)/C=C/c6cccnc6)CC[C@]5(CO)CC[C@@]4(C)[C@]3(C)CC[C@@H]12` end up with in this test?
Response: -1

Query: What classification did `CCOC(=O)[C@@H](C)C[C@H](Cc1ccccc1)NC(=O)c1csc([C@@H](C[C@H](C(C)C)N(C)C(=O)[C@@H](NC(=O)[C@H]2C[C@H](O[Si](C)(C)C(C)(C)C)CCN2C)C(C)C)OC(C)=O)n1` end up with in this test?
Response: 1

--- query ---
Query: What classification did `CC(C)c1ccc(Cc2cnc(NC(=O)c3cc(Br)cs3)s2)cc1` end up with in this test?
Response: -1

====

- System: NCI-H522 lung
- measurement_description: NCI tumour cell line growth inhibition, 48 h; in the data active = GI50 below about 0.43 µM; inactive = the rest
Return exactly one item of active, inactive

Below, 7 compounds whose answers are already recorded.
Query: What classification did `COc1cc2c(cc1OCc1ccccc1)N=C[C@@H]1C/C(=C/C(=O)NCCCN3C(=O)c4cccc5cccc(c45)C3=O)CN1C2=O` end up with in this test?
Response: active

Query: What classification did `Cc1cc(/C=C2\SC(=Nc3ccccc3)N(C3CCCC3)C2=O)c(C)n1-c1ccc(Cl)cc1` end up with in this test?
Response: inactive

Query: What classification did `Nc1c(C(=O)c2ccccc2)sc2nc(-c3cccs3)ccc12` end up with in this test?
Response: active

Query: What classification did `CN1CCN(Cc2ccc(NC(=O)c3cncc(C#Cc4cnc(N)c5ccc(F)cc45)c3)cc2C(F)(F)F)CC1` end up with in this test?
Response: inactive

Query: What classification did `COc1ccc(/C=C/c2cc(OC)c(OC)c(OC)c2)cc1NC(=O)/C=C/c1ccc(F)cc1` end up with in this test?
Response: inactive

Query: What classification did `COc1cc2c(cc1C)NC(=O)/C2=C\c1cc(OC)c(OC)c(OC)c1` end up with in this test?
Response: inactive

Query: What classification did `O=C1c2cc(Br)ccc2-c2c1c1ccc([N+](=O)[O-])cc1c(=O)n2CCCCl` end up with in this test?
Response: active

--- query ---
Query: What classification did `COc1cc2nc(-c3ccc(C(F)(F)F)cc3)cc(OCCCN3CCOCC3)c2cc1OC` end up with in this test?
Response: inactive

====

- System: OVCAR-4 ovarian
- measurement_description: NCI tumour cell line growth inhibition, 48 h
Assign TGI to each entry below.

Recorded TGI, per entry:
Query: # TGI lookup, item `CSc1nncc(-c2cc3c(c(SC)n2)CCC3)n1`
Response: > 100 µM

Query: # TGI lookup, item Cc1ccc2c(c1)OC1Nc3ccccc3C1=C2O (stereo unspecified)
Response: > 100 µM

Query: # TGI lookup, item `COc1cc2ccnc3c2c(c1O)N(C)C=C3`
Response: 32.4 µM

For the 3 compounds below, give their TGI values.
1. O=C(Nc1ccc(Cl)cc1)Nc1ccc(Cl)c(Cl)c1
2. N#CCc1nc(C#N)c(N)o1
3. COS(=O)c1cc(Cl)cc(Cl)c1O (stereo unspecified)

Response:
1: > 100 µM; 2: > 100 µM; 3: > 100 µM
